The reported measurements were obtained from patent US20240043507A1.

measured target: spike protein of SARS-CoV-2 strain P.1 (SARS-CoV-2, UniProt P0DTC2 14-1273)
assay method text: cell-based or functional assay
recorded endpoint: IC50 (FRNT neutralisation)

- binder: "antibody 384 (antibody, V domains shown) VH: EVQLVESGGGLVKPGESLRLSCAASGFTFSDYYMTWIRQAPGKGLEWVSYIRSSGHTIYYADSVKGRFTISRDNAKNSLYLQMNSLRVEDTAVYYCARGGVLRFLEWPLNAFDIWGQGTMVTVSS VL: DIQLTQSPSSLSASVGDRVTITCRASQGISNYLAWYQQKPGKVPKLLIYAASTLQSGVPSRFSGSGSGTDFTLTISSLQPEDVATYYCQKYNNALGTFGQGTKVEIK"
  recorded endpoint: "IC50 (FRNT neutralisation)"
  reported: "> 10 µg/mL"
- binder: "antibody 165 (antibody, V domains shown, also called mAb 165) VH: QVQLVQSGPEVKKPGTSVKVSCKASGFTFTSSAVQWVRQARGQRLEWIGWIVVGSGNTNYAQKFQESVTITRDMSTSTAYMELSSLRSEDTAVYYCAAPHCIGGSCHDAFDIWGQGTMVTVSS VL: DIVMTQSPGTLSLSPGERATLSCRASQSVRSSYLAWYQQKPGQAPRLLIYGASRRGTGIPDRFSGSGSGTDFTLTISRLEPEDFAVYYCQQYGSSPWTFGQGTKVEIK"
  recorded endpoint: "IC50 (FRNT neutralisation)"
  reported: "0.241 µg/mL"
- binder: "antibody 269 (antibody, V domains shown, also called mAb 269) VH: QVQLVESGGGLIQPGGSLRLSCAASGLTVNRNYMSWIRQAPGKGLEWVSVIYSGGSTFYADSVKGRFTISRDNSKNTLSLQMNSLRAEDTAIYYCARDFYEGSFDIWGQGTMVTVSS VL: AIQLTQSPSFLSASIGDRVTITCRASQGISSYLAWYQQKPGKAPKLLIYAASTLQSGVPSRFSGSGSGTEFTLTISSLQPEDFASYYCQQLNSYPAPVFGPGTKVDIK"
  recorded endpoint: "IC50 (FRNT neutralisation)"
  reported: "> 10 µg/mL"
- binder: "antibody 132 (antibody, V domains shown) VH: QVQLQQWGAGLLKPSETLSLTCAVYGGSFSGYYWSWIRQPPGKGLEWIGEINHSGSTNYNPSLKSRVTISVDTSKNQFSLKLSSVTAADTAVYYCARTDYYDSIDWGQGTLVTVSS VL: QSVLTQEPSLTVSPGGTVTLTCGSSTGAVTSGHYPYWFQQKPGQVPRTLIYDTRNKHSWTPARFSGSLLGGKAALTLSGAQPEDEAEYYCLLSSSGARVFGGGTKLTVL"
  recorded endpoint: "IC50 (FRNT neutralisation)"
  reported: "> 10 µg/mL"
- binder: "antibody 398 (antibody, V domains shown, also called mAb 398) VH: QVQLVESGGGLVQPGGSLRLSCAASGFTVSSNYMTWVRQAPGKGLEWVSVIYSGGSTYYADSVKGRFTISRDNSKNTLYLQMNSLRADDTAVYYCARDSTADYDFWSGYYVGAFHIWGQGTMVTVSS VL: QTVLTQPASVSGSPGQSITISCTGTSSDVGGYNYVSWYQQHPGKAPKLMIYEVTKRPSGVPDRFSGSKSGNTASLTVSGLQAEDEADYYCSSYAGSNNWVFGGGTKLTVL"
  recorded endpoint: "IC50 (FRNT neutralisation)"
  reported: "> 10 µg/mL"
- binder: "antibody 88 (antibody, V domains shown, also called mAb 88) VH: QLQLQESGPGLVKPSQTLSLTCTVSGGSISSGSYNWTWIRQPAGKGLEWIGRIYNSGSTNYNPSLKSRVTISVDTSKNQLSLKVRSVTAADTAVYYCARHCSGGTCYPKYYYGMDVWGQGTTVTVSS VL: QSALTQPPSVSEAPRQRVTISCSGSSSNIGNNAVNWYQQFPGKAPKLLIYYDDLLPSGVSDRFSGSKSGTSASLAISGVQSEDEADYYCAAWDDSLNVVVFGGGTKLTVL"
  recorded endpoint: "IC50 (FRNT neutralisation)"
  reported: "> 10 µg/mL"
- binder: "antibody 278 (antibody, V domains shown, also called mAb 278) VH: QVQLVQSGAEVKKPGASVKVSCKASGYIFIRYGISWVRQAPGQGLEWMGWISANNGYTNYAQKLQGRVTMTTDTSTSTAYMELRSLRSDDTAVYYCARDGGILTGYLDYFDHWGQGTLVTVSS VL: DIQMTQSPSSLSASVGDRLTITCRASQSIASYLNWYQQKPGKAPKLLIYAASSLQSGVPSRFSGSGSGTDFTLTISSLQPEDFATYHCQQSYSTLGITFGPGTKVDIK"
  recorded endpoint: "IC50 (FRNT neutralisation)"
  reported: "0.245 µg/mL"
- binder: "antibody 150 (antibody, V domains shown) VH: QVQLVESGGGLIQPGGSLRLSCAASGVTVSSNYMSWVRQAPGKGLEWVSIIYSGGTTYYADSVKGRFTISRDSSMNTLYLQMNSLRAEDTAVYYCARDLMVYGIDVWGQGTTVTVSS VL: EIVMTQSPSSLSASVGDRVTITCRASQGISSYLAWYQQKPGKAPKLLIYAASTLQSGVPSRFSGSGSGTDFTLTISSLQPEDFATYYCQQLDSYPPGYTFGQGTKVDIK"
  recorded endpoint: "IC50 (FRNT neutralisation)"
  reported: "0.04 µg/mL"
- binder: "antibody 170 (antibody, V domains shown) VH: QVQLVESGAEVKKPGESLKISCKGSGYSFTSYWIVWVRQMPGKGLEWMGIIYPGDSDTKYSPSFQGQVSISADKPISTAYLQWSRLKASDTAMYYCARLGNWLVDYWGQGTLVTVSS VL: DIVMTQSPLSLSVTPGQPASISCKSSQSLLHSDGKTYLYWYLQKPGQPPQLLMYEVSNRFSGVPDRFSGSGSGTDFTLKISRVESEDVGVYYCMQSIQLPRGITFGQGTRLEIK"
  recorded endpoint: "IC50 (FRNT neutralisation)"
  reported: "> 10 µg/mL"
- binder: "antibody 158 (antibody, V domains shown, also called mAb 158) VH: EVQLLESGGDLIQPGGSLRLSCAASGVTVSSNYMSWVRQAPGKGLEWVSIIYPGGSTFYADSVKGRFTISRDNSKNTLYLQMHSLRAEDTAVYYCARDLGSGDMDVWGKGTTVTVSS VL: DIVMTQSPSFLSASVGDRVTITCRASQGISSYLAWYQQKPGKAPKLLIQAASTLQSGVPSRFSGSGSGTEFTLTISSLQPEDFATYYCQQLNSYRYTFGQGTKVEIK"
  recorded endpoint: "IC50 (FRNT neutralisation)"
  reported: "> 10 µg/mL"
